# STUDY SYSTEM: TrkA kinase (Homo sapiens)
# Sequence (P04629 33-796): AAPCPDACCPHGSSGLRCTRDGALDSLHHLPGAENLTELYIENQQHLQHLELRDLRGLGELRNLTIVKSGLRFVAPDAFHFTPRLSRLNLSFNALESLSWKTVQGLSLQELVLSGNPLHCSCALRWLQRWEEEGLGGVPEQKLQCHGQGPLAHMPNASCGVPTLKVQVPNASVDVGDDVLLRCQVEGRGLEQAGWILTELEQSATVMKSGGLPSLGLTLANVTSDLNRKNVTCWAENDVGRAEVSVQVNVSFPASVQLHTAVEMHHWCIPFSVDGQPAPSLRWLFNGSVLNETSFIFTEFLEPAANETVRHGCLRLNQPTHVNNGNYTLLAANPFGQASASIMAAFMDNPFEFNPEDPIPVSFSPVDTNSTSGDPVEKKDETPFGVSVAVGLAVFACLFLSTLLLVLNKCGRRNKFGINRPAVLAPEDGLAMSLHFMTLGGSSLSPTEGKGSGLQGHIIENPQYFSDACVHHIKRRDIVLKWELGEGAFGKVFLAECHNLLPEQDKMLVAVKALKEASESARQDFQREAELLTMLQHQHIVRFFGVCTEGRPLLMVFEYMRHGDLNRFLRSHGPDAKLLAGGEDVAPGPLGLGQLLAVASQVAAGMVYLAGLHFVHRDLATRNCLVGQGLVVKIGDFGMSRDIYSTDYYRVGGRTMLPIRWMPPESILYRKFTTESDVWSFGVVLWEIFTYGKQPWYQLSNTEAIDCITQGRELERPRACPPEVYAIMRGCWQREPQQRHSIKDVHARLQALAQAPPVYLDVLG
# MEASUREMENT PROTOCOL: TrkA kinase assay (mobility shift assay)
# Format: biochemical
# RECORDED CONDITIONS: numeric values; read-out: Trk A Kinase IC50
Structures can show the parent of a compound that is named as a salt.
REPORTED PROPERTY: IC50 (nM)
Numbers only here, please. The scale is nM.

Fill in: IC50 of COc1cc2nc(-c3cnn4ccc(N5CCC[C@@H]5c5cc(F)ccc5F)nc34)[nH]c2cc1CO [Compound 67] is ___ 0.32

Fill in: IC50 of O[C@H](c1ccccc1)c1nnc(-c2cnn3ccc(N4CCC[C@@H]4c4cc(F)ccc4F)nc23)[nH]1 [Compound 42] is ___ 3.9

Fill in: IC50 of Fc1ccc(F)c([C@H]2CCCN2c2ccn3ncc(-c4nc5cc(F)c(F)cc5[nH]4)c3n2)c1 [Compound 136] is ___ 1.9

Fill in: IC50 of COC(=O)[C@@H]1CCCN1c1cc2[nH]c(-c3cnn4ccc(N5CCC[C@@H]5c5cc(F)ccc5F)nc34)nc2cc1C#N [Compound 166] is ___ 2.5

Fill in: IC50 of Fc1ccc(F)c([C@H]2CCCN2c2ccn3ncc(-c4nnc(C5COCCN5)[nH]4)c3n2)c1 (stereo partly shown) [Compound 49] is ___ 6.4

Fill in: IC50 of CC(C)C[C@H](N)C(=O)O[C@@H](C)c1nnc(-c2cnn3ccc(N4CCC[C@@H]4c4cc(F)ccc4F)nc23)[nH]1 [Compound 51, hydrochloride] is ___ 3

Fill in: IC50 of Fc1ccc(F)c([C@H]2CCCN2c2ccn3ncc(-c4cc5ccc(F)cc5[nH]4)c3n2)c1 [Compound 183] is ___ 20.4

---

# STUDY SYSTEM: TrkA kinase (Homo sapiens)
# MEASUREMENT PROTOCOL: TrkA kinase assay (mobility shift assay)
# Assay type: biochemical
# RECORDED CONDITIONS: numeric values; read-out: Trk A Kinase IC50
REPORTED PROPERTY: pIC50
Would you please state pIC50, meaning minus log10 of the concentration in mol/L, as a bare number?

Fill in: pIC50 of COc1cc2nc(-c3cnn4ccc(N5CCC[C@@H]5c5cc(F)ccc5F)nc34)[nH]c2cc1C#N is ___ 8.96

Fill in: pIC50 of COc1cc2nc(-c3cnn4ccc(N5CCC[C@@H]5c5cc(F)ccc5F)nc34)[nH]c2cc1C(=O)O is ___ 9.36

Fill in: pIC50 of OC12CC3CC(C1)CC(c1nnc(-c4cnn5ccc(N6CCC[C@@H]6c6cc(F)ccc6F)nc45)[nH]1)(C3)C2 is ___ 8.80

Fill in: pIC50 of Fc1ccc(F)c([C@H]2CCCN2c2ccn3ncc(-c4nc5cc6c(cc5[nH]4)OC(F)(F)O6)c3n2)c1 is ___ 7.92

Fill in: pIC50 of COc1ccc2nc(-c3cnn4ccc(N5CCC[C@@H]5c5cc(F)ccc5F)nc34)[nH]c2c1 is ___ 9.15

Fill in: pIC50 of COc1cc2[nH]c(-c3cnn4ccc(N5CCC[C@@H]5c5ccccc5F)nc34)nc2cc1C#N is ___ 8.64

Fill in: pIC50 of COC(=O)c1cc2nc(-c3cnn4ccc(N5CCC[C@@H]5c5cc(F)ccc5F)nc34)[nH]c2cc1OC is ___ 9.22

Fill in: pIC50 of OC1CC(c2nnc(-c3cnn4ccc(N5CCC[C@@H]5c5cc(F)ccc5F)nc34)[nH]2)C1 (stereo partly drawn) is ___ 8.64

Fill in: pIC50 of Nc1ncnc2nc(-c3cnn4ccc(N5CCC[C@@H]5c5cc(F)ccc5F)nc34)[nH]c12 is ___ 9.14

Fill in: pIC50 of CS(=O)(=O)c1cc2nc(-c3cnn4ccc(N5CCC[C@@H]5c5cc(F)ccc5F)nc34)[nH]c2cc1C#N is ___ 9.22

Fill in: pIC50 of Fc1ccc(F)c([C@H]2CCCN2c2ccn3ncc(-c4nc5cc(F)cc(Cl)c5[nH]4)c3n2)c1 is ___ 8.06

Fill in: pIC50 of Fc1ccc(F)c([C@H]2CCCN2c2ccn3ncc(-c4nnc(-c5ccc6ncccc6c5)[nH]4)c3n2)c1 is ___ 8.92

Fill in: pIC50 of COc1cc2nc(-c3cnn4ccc(N5CCC[C@@H]5c5cc(F)ccc5F)nc34)[nH]c2cc1C(N)=O is ___ 9.59

Fill in: pIC50 of OC1(c2nnc(-c3cnn4ccc(N5CCC[C@@H]5c5cc(F)ccc5F)nc34)[nH]2)CC1 is ___ 8.85

Fill in: pIC50 of CNC(=O)c1cc2nc(-c3cnn4ccc(N5CCC[C@@H]5c5cc(F)ccc5F)nc34)[nH]c2cc1OC is ___ 9.37

---

# MEASUREMENT PROTOCOL: Liver microsomes metabolic stability assay, human
# Format: in vitro ADME
# RECORDED CONDITIONS: human liver microsomes 0.5 mg/mL, 37° C.
Answer Not met if microsomal CLint at 2 μM is under 20 µL/min/mg, and Met if it is 20 µL/min/mg or more.

In plain terms: is recorded microsomal CLint at 2 μM at least 20 µL/min/mg for COc1cc2nc(-c3cnn4ccc(N5CCC[C@@H]5c5cc(F)ccc5F)nc34)[nH]c2cc1C#N ? Not met

In plain terms: is recorded microsomal CLint at 2 μM at least 20 µL/min/mg for Cc1nnc(-c2cnn3ccc(N4CCCC4c4cc(F)ccc4F)nc23)[nH]1 (stereo not drawn) [Comparative compound A, reference compound] ? Met

In plain terms: is recorded microsomal CLint at 2 μM at least 20 µL/min/mg for Fc1ccc(F)c([C@H]2CCCN2c2ccn3ncc(-c4nc5cnncc5[nH]4)c3n2)c1 ? Met

In plain terms: is recorded microsomal CLint at 2 μM at least 20 µL/min/mg for C[S+]([O-])c1cc2nc(-c3cnn4ccc(N5CCC[C@@H]5c5cc(F)ccc5F)nc34)[nH]c2cc1C#N (stereo partly drawn) ? Met

In plain terms: is recorded microsomal CLint at 2 μM at least 20 µL/min/mg for Fc1ccc(F)c([C@H]2CCCN2c2ccn3ncc(-c4nnc(-c5ccc6c(c5)CCNC6)[nH]4)c3n2)c1 ? Not met

In plain terms: is recorded microsomal CLint at 2 μM at least 20 µL/min/mg for OC1(c2nnc(-c3cnn4ccc(N5CCC[C@@H]5c5cc(F)ccc5F)nc34)[nH]2)CCC1 ? Not met

---

# STUDY SYSTEM: TrkA kinase (Homo sapiens)
# MEASUREMENT PROTOCOL: TrkA kinase assay (mobility shift assay)
# Type: biochemical
# RECORDED CONDITIONS: numeric values; read-out: Trk A Kinase IC50
REPORTED PROPERTY: IC50

Fill in: IC50 of CN1CCN(c2ccc(-c3nnc(-c4cnn5ccc(N6CCC[C@@H]6c6cc(F)ccc6F)nc45)[nH]3)cn2)CC1 [Compound 54] is ___ 1.17 nM

Fill in: IC50 of N#Cc1cc2[nH]c(-c3cnn4ccc(N5CCC[C@@H]5c5cc(F)ccc5F)nc34)nc2cc1C(F)(F)F [Compound 157] is ___ 27 nM

Fill in: IC50 of OB1OCc2ccc(-c3nnc(-c4cnn5ccc(N6CCC[C@@H]6c6cc(F)ccc6F)nc45)[nH]3)cc21 [Compound 45] is ___ 0.8 nM

Fill in: IC50 of Fc1ccc(F)c([C@H]2CCCN2c2ccn3ncc(-c4nc5ccc(OC(F)F)cc5[nH]4)c3n2)c1 [Compound 81] is ___ 2.18 nM

---

For each of the compounds below, state its microsomal CLint at 2 μM.
# MEASUREMENT PROTOCOL: Liver microsomes metabolic stability assay, rat
# Assay type: in vitro ADME
# RECORDED CONDITIONS: male, rat liver microsomes 0.5 mg/mL, 37° C.
Numbers only here, please. The scale is µL/min/mg.

Fill in: microsomal CLint at 2 μM of COc1cc2nc(-c3cnn4ccc(N5CCC[C@@H]5c5cc(F)ccc5F)nc34)[nH]c2cc1C#N [Compound 125] is ___ 15

Fill in: microsomal CLint at 2 μM of C[C@H](O)c1nnc(-c2cnn3ccc(N4CCC[C@@H]4c4cc(F)ccc4F)nc23)[nH]1 [Compound 4] is ___ 29.3

Fill in: microsomal CLint at 2 μM of OC1CC(c2nnc(-c3cnn4ccc(N5CCC[C@@H]5c5cc(F)ccc5F)nc34)[nH]2)C1 (stereo partly shown) [Compound 31] is ___ 69.1

Fill in: microsomal CLint at 2 μM of COc1cc2[nH]c(-c3cnn4ccc(N5CCC[C@@H]5c5cc(F)ccc5F)nc34)nc2cc1Cl [Compound 112] is ___ 34

Fill in: microsomal CLint at 2 μM of CNC(=O)c1cc2nc(-c3cnn4ccc(N5CCC[C@@H]5c5cc(F)ccc5F)nc34)[nH]c2cc1OC [Compound 160] is ___ 92.4

Fill in: microsomal CLint at 2 μM of Fc1ccc(F)c([C@H]2CCCN2c2ccn3ncc(-c4nc5cc(OC(F)(F)F)ccc5[nH]4)c3n2)c1 [Compound 71] is ___ 12.2

Fill in: microsomal CLint at 2 μM of Fc1ccc(F)c([C@H]2CCCN2c2ccn3ncc(-c4nc5cnncc5[nH]4)c3n2)c1 [Compound 76] is ___ 22.2
